pIC50 values by entry
Target: drHDAC10 (Danio rerio, UniProt F1QCV2)
Sequence (F1QCV2 2-675 limits assumed): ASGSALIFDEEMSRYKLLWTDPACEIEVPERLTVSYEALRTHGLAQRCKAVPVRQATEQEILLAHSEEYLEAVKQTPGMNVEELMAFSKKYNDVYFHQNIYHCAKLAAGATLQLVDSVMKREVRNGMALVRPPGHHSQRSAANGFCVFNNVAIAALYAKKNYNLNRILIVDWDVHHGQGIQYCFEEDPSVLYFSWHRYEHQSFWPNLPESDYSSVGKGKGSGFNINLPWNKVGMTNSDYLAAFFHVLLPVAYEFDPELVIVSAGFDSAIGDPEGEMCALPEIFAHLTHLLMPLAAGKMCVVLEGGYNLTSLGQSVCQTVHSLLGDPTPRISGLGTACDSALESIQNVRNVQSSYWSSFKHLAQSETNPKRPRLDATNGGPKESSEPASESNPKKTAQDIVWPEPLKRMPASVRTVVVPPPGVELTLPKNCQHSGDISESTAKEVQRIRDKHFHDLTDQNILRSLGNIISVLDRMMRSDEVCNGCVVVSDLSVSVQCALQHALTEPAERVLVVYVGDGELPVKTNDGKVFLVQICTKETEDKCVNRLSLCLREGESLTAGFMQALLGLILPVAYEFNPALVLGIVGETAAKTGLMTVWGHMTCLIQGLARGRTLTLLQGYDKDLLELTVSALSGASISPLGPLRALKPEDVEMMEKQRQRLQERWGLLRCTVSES
pIC50: −log10 of the molar value.
outcomeMeasure: pIC50

[
  {
    "smilesRepr": "CN(C)Cc1c(C(=O)NCCOc2ccc(C(=O)NO)cc2)oc2ccccc12",
    "experimentalTarget": "drHDAC10 (Danio rerio, UniProt F1QCV2)",
    "readoutNumber": 6.87
  },
  {
    "smilesRepr": "Cn1cc(CNCC2CCN(c3ncc(C(=O)NO)cn3)CC2)c2ccccc21",
    "experimentalTarget": "drHDAC10 (Danio rerio, UniProt F1QCV2)",
    "readoutNumber": 7.30
  },
  {
    "smilesRepr": "CN1CCc2c(c3ccccc3n2Cc2ccc(C(=O)NO)cc2)C1",
    "experimentalTarget": "drHDAC10 (Danio rerio, UniProt F1QCV2)",
    "readoutNumber": 7.52
  },
  {
    "smilesRepr": "O=C(CCCCCCC(=O)Nc1ccccc1)NO",
    "experimentalTarget": "drHDAC10 (Danio rerio, UniProt F1QCV2)",
    "readoutNumber": 5.70
  }
]

---

molecular target: drHDAC10 (Danio rerio); assay: NDA assay drHDAC10; settings: read-out: NDA assay drHDAC10 % inhibition
Please enter true (1) where inhibition at 0.1 µM is greater than or equal to 60%, and false (0) where it is lower.

[
  {
    "smilesRepr": "CN1CCc2c(c3ccccc3n2Cc2ccc(C(=O)NO)cc2)C1",
    "labelClass": "true (1)"
  },
  {
    "smilesRepr": "CN(C)Cc1c(C(=O)NCCOc2ccc(C(=O)NO)cc2)oc2ccccc12",
    "labelClass": "false (0)"
  },
  {
    "smilesRepr": "Nc1ccccc1NC(=O)c1ccc(CNc2nccc(-c3cccnc3)n2)cc1",
    "labelClass": "false (0)"
  },
  {
    "smilesRepr": "Cc1[nH]c2ccccc2c1CCNCc1ccc(/C=C/C(=O)NO)cc1",
    "labelClass": "true (1)"
  },
  {
    "smilesRepr": "CCCCOc1ccc(CC(=O)NO)cc1",
    "labelClass": "false (0)"
  },
  {
    "smilesRepr": "O=C(CCCCCCC(=O)Nc1ccccc1)NO",
    "labelClass": "false (0)"
  }
]

FYI, the data here is from paper PMC9308754.
